In this section, each of the compounds is paired with its reported inhibition.
- TEST_DETAILS: ATP-evoked calcium signal inhibitors, parental CHO, primary screen, counter-screen for OX1R antagonist project, cell-based, fluorescence, Fluo-8 calcium dye (AID 463079);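 further: 0% = ATP-challenged DMSO wells and 100% = DMSO wells without ATP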
- REPORTED_CONDITIONS: parental CHO-K1, ATP-induced calcium, Fluo-8 fluorescence; at 5.6 µM; hits give high values
The whole screen tested about 330,000 compounds, of which about 2,000 (0.61%) were called active. The list comes from a sample in which actives are over-represented; it also holds close analogues and randomly drawn compounds.
PROPERTY_MEASURED: inhibition (%)

>>> recorded_value("CC(C)c1nnc(NC(=O)COC(=O)/C=C/c2ccc([N+](=O)[O-])cc2)s1")
-9.22
>>> recorded_value("O=C1C=C(c2cccc(Cl)c2)C[C@@H](c2ccc(F)cc2)C1")
-24
>>> recorded_value("COc1ccc(NC(=O)CC2C(=O)OCC3CCCCN32)cc1Cl (stereo not drawn)")
-17.2
>>> recorded_value("CCN(CC)C(=O)c1sc(NC(=O)c2ccco2)c(C#N)c1C")
-6.79
>>> recorded_value("COC(=O)Cn1c(=NC(=O)c2cc(OC)c(OC)c(OC)c2)sc2cc(OC)ccc21")
-4.35
>>> recorded_value("Cc1cccc(NC(=O)c2ccc(S(=O)(=O)N(C)c3ccccc3)cc2)n1")
-10.9
>>> recorded_value("CC(NC(=O)C1CCCN(S(=O)(=O)c2ccc(-n3cnnn3)cc2)C1)c1ccc(F)cc1 (stereo not drawn)")
-12.5
>>> recorded_value("Cc1ccc([C@@H]2CC=C(C(=O)O)[C@H](c3cccc(Cl)c3)N2S(=O)(=O)c2ccc(C)cc2)cc1")
-14.4
>>> recorded_value("CC1CCCCN1CCCNC(=O)Cn1ncc2c([nH]c3ccccc32)c1=O (stereo not drawn)")
-10.7
>>> recorded_value("Cc1ccc(S(=O)(=O)N2[C@@H](c3cccc(Cl)c3)C(C(=O)O)=CC[C@H]2c2ccc(Cl)c(Cl)c2)cc1")
36.9
>>> recorded_value("COc1cc(C2OC(c3cc(OC)c(OC)c(OC)c3)C(C)C2C)cc(OC)c1OC (stereo not drawn)")
-16.8
>>> recorded_value("CSc1nccc(NC(=O)c2ccc(C(C)(C)C)cc2)n1")
33.6
>>> recorded_value("OCCN(Cc1ccccc1)Cc1ccc(Cl)cc1")
-28.2
>>> recorded_value("O=C(NC(=S)NC1CCSC1=O)c1ccccc1F (stereo not drawn)")
-7.55
>>> recorded_value("CN(c1ccccc1)S(=O)(=O)c1cc(C(=O)N2CCN(c3ncccn3)CC2)ccc1Cl")
-18.9
>>> recorded_value("O=c1c2ccccc2nc2n1C(CSCc1cccc(C(F)(F)F)c1)CS2 (stereo not drawn)")
40.1
>>> recorded_value("O=C1c2ccccc2C(=O)N1CCC#Cc1ccc2cc(C3(O)CCCCC3)oc(=O)c2c1")
-14.2
>>> recorded_value("CSCCC(C(=O)NC1=NCCS1)N1C(=O)c2ccccc2C1=O (stereo not drawn)")
1.01

* * *

- TEST_DETAILS: ATP-evoked calcium signal inhibitors, parental CHO, primary screen, counter-screen for OX1R antagonist project, cell-based, fluorescence, Fluo-8 calcium dye (AID 463079);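 further: 0% = ATP-challenged DMSO wells and 100% = DMSO wells without ATP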
- REPORTED_CONDITIONS: parental CHO-K1, ATP-induced calcium, Fluo-8 fluorescence; at 5.6 µM; hits give high values
About 2,000 (0.61%) of roughly 330,000 compounds were called active. What follows is part of a selection rich in actives, with near analogues and random picks from the rest.
Label y when inhibition is at or above -10%; otherwise label n.

>>> class_assignment("O=C(CO/N=C/c1ccccc1O)NNC(=O)c1ccccc1Cl")
"y"
>>> class_assignment("COC(=O)CNC(=O)c1ccc(OC2CCN(C(=O)C3CC3)CC2)cc1")
"y"
>>> class_assignment("Cc1cc(N2C(=O)C(O)=C(C(=O)c3ccc(C)o3)C2c2ccc(OCc3ccccc3)cc2)no1 (stereo not given)")
"n"
>>> class_assignment("Cc1cc(C)cc(OCC(=O)NC(C)c2ccccc2)c1 (stereo not given)")
"n"
>>> class_assignment("COc1cc(OC)cc(C(=O)N[C@H](C(=O)OCC(=O)NC(C)c2ccccc2)C(C)C)c1 (stereo not given in full)")
"y"
>>> class_assignment("Cc1cccn2cc(-c3cccc(S(=O)(=O)N4CCCCC4)c3)nc12")
"n"
>>> class_assignment("C=CCOc1cccc(C2C(C(=O)c3ccc(C)o3)=C(O)C(=O)N2CCCn2ccnc2)c1 (stereo not given)")
"y"
>>> class_assignment("COc1ccc(S(=O)(=O)N(C)CC(=O)N2CCCC2)cc1")
"y"
>>> class_assignment("CN(C)S(=O)(=O)c1ccc(NC(=O)N2CCOCC2)cc1")
"n"
>>> class_assignment("CCOC(=O)C1=C(C)N(C[C@@H]2CC[C@@H](Cc3ccc(-c4ccccc4)cc3)O2)C(=O)NC1c1ccc([N+](=O)[O-])cc1 (stereo not given in full)")
"n"
